Molecular target: FGFR3 (UniProt P22607)
Sequence (P22607 whole entry, looked up): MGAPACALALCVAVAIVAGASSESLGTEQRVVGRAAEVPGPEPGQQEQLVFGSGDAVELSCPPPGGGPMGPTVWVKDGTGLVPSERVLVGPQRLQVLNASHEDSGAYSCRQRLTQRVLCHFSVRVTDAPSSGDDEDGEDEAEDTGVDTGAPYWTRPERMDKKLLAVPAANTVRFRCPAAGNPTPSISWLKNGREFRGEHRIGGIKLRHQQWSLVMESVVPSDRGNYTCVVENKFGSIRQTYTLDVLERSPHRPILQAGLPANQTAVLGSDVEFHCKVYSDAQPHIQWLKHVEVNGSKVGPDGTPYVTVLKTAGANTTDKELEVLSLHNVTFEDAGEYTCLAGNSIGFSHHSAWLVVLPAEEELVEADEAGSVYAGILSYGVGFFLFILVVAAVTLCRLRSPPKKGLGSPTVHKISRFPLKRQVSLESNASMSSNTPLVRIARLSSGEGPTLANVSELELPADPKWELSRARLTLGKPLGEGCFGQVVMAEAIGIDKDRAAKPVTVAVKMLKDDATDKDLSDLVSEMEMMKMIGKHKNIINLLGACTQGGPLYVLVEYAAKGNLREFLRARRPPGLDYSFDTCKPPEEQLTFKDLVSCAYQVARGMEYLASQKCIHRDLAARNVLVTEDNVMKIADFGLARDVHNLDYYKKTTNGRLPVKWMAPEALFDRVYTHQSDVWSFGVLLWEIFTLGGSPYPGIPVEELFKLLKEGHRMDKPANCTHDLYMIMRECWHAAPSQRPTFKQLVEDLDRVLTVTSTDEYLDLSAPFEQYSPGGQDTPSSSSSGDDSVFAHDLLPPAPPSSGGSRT
Experiment: phosphorylation enrichment, bacterial display (enrichment ratio); higher = better substrate or ligand; peptides without Tyr show the background
yes means recorded phosphorylation enrichment is 0.6 or above; no means it is below 0.6.

Use these answered entries as a reference point.
{"RESIDUE_SEQUENCE": "PTTKTYFPHFG [HBA1_Y43_D48G]", "CATEGORY_LABEL": "no"}
{"RESIDUE_SEQUENCE": "FYDANYDGKEY [MAPRE2_Y162]", "CATEGORY_LABEL": "yes"}
{"RESIDUE_SEQUENCE": "FPQARYHWLVL [APTX_Y214_K211Q_YF]", "CATEGORY_LABEL": "yes"}
{"RESIDUE_SEQUENCE": "AGTILYHAHLD [ASS1_Y291]", "CATEGORY_LABEL": "no"}
{"RESIDUE_SEQUENCE": "RLRKFYLGKFL [KLB_Y906_YF]", "CATEGORY_LABEL": "yes"}

# input for lookup
QUERY: In plain terms: is recorded phosphorylation enrichment at least 0.6 for YLAAIYPTVGQ [NF1_Y2508_T2507I] ?
RESULT: yes

----------
System: c-Src
Assay: phosphorylation enrichment, bacterial display (enrichment ratio); higher = better substrate or ligand; peptides without Tyr show the background
Hi there, I'd appreciate the recorded phosphorylation enrichment for every entry that follows.

Recorded phosphorylation enrichment, per entry:
{"RESIDUE_SEQUENCE": "MKGDFYRFLAE [YWHAG_Y131_YF]", "phosphorylation enrichment": 0.448}
{"RESIDUE_SEQUENCE": "AVRVFYRKCPR [EPHB2_Y194]", "phosphorylation enrichment": 0.557}
{"RESIDUE_SEQUENCE": "VAMDDYLKNVV [LRRK2_Y707_M712V]", "phosphorylation enrichment": 0.376}

Report phosphorylation enrichment for each item below.
1. TFMKKYPKVFL [CNBD1_Y70_Q69K]
2. DHFNQYEQQKM [CHD7_Y75_YF]
3. SLQFEYVHYGG [CDC14A_Y591_S589F]
4. FAKTQYPDIYA [CRX_Y63_V66I]
5. EKHGQYLIGHG [EPHB4_Y581_D576E]
6. RGRSTCFWPRP [GAGE12J_Y9_Y9C_YF]

RESULT:
1. 0.447
2. 0.414
3. 0.465
4. 0.572
5. 0.396
6. 0.867

----------
Molecular target: SHP2-C SH2
Assay: SH2 binding enrichment of the phosphorylated peptide, bacterial display (enrichment ratio); higher = better substrate or ligand; peptides without Tyr show the background
ENDPOINT_NAME: SH2 binding enrichment
Give bare numbers.

Report SH2 binding enrichment for each item below.
1. NKHTNYTMEHI [ACTN1_Y708]
2. RDWSLYFKIIE [KRT18_Y129_H128L]
3. EALDFYGEVRI [PTEN_Y155_T160I]

RESULT:
1: 0.603; 2: 0.406; 3: 0.567

Report SH2 binding enrichment for each item below.
1. AQRKLYRNVML [ZNF569_Y33]
2. IHETTYKSIMK [ACTA1_Y281_N282K]
3. TAALWYIYLHT [ENG_Y612_S615L]
4. VSGIPYGQPKQ [NEU1_Y251]
5. LSAPEYGPKLK [TBC1D14_Y46]
6. SVVVPYEPPEI [TP53_Y220_V225I]

RESULT:
1. 0.82
2. 3.31
3. 0.52
4. 1.22
5. 0.665
6. 0.867

Report SH2 binding enrichment for each item below.
1. FFRRHYPLTTL [TNS4_Y644]
2. RNEAFYDTFST [EFCAB3_Y372_S370A]
3. HIKHNYECLVY [XRCC5_Y416]
4. PVKTPYSLKRW [BMPR2_Y979_R974P]
5. NLRQQYNSPQE [UMPS_Y432_G429R]

RESULT:
1: 0.566; 2: 0.842; 3: 0.693; 4: 1.2; 5: 0.769

----------
Target: c-Src SH2
Assay: SH2 binding enrichment of the phosphorylated peptide, bacterial display (enrichment ratio); higher = better substrate or ligand; peptides without Tyr show the background
Hi there, I'd appreciate the recorded SH2 binding enrichment for every entry that follows.
Answers are plain numbers.

{"RESIDUE_SEQUENCE": "ILGRFYETSSI [PAX2_Y73_G76S_YF]", "SH2 binding enrichment": 1.02}

Report SH2 binding enrichment for each item below.
1. NPQKSYFIHLY [WAS_Y83_R86H]
2. GDFLSYREFHS [ERBIN_Y1107_YF]

RESULT:
0.804
0.49

----------
Target: Jak2 (UniProt O60674)
Sequence (O60674 whole entry, looked up): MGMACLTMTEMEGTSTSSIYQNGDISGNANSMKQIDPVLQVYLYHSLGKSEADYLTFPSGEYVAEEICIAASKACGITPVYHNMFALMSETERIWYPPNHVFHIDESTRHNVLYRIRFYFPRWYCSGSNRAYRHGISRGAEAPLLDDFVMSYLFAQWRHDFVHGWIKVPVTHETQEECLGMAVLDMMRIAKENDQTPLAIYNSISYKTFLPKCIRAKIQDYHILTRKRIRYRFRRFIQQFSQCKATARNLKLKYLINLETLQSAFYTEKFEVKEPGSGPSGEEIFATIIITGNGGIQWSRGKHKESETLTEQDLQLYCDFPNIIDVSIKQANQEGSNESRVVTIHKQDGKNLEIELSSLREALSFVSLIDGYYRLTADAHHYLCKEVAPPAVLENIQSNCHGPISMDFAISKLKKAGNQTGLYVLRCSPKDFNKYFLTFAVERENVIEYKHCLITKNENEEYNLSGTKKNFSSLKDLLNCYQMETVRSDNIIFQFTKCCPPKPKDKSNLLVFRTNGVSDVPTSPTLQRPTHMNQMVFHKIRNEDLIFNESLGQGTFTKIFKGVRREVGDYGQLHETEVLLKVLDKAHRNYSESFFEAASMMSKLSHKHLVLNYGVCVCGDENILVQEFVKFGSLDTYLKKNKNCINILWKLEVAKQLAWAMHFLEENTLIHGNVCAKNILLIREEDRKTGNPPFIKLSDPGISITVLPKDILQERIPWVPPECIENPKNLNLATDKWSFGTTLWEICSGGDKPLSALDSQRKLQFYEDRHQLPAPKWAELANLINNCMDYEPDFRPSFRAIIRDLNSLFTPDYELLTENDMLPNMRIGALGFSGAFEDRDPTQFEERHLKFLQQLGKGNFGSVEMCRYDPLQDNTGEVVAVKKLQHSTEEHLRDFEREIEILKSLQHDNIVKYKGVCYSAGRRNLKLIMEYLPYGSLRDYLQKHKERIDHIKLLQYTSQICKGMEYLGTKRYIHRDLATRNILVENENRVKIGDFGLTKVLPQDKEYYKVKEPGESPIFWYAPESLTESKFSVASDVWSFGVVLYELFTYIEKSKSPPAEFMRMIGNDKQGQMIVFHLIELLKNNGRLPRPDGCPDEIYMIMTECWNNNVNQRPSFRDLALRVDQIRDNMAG
Assay: phosphorylation enrichment, bacterial display (enrichment ratio); higher = better substrate or ligand; peptides without Tyr show the background
ENDPOINT_NAME: phosphorylation enrichment
One number for each entry.

{"RESIDUE_SEQUENCE": "CEDGTYSPEIS [PTDSS1_Y424]", "MEASURED_RESULT": 1.33}

Report phosphorylation enrichment for each item below.
1. SVTCTYSPVLN [TP53_Y126_A129V]
2. AVAFVYYKSIG [ADGRL4_Y301]
3. VDTPMYATMQR [TPO_Y55_A53P]
4. GPIIRYDLGGA [CYP11B1_Y81_F79I]
5. WQQQSYLDSGI [CTNNB1_Y30]
6. DAVAVCHGKIS [SH2D1A_Y7_Y7C]
7. EKSREYHRLFE [PIK3R1_Y463_D464H_YF]

RESULT:
[1.21, 1.2, 0.593, 0.626, 0.758, 0.774, 0.51]

Report phosphorylation enrichment for each item below.
1. YIATQYSLRPR [LBR_Y166]
2. ISGLKYPVSQQ [BTK_Y375_R372G]
3. NFATLHLKIYH [PDE6B_Y219_Y219H]
4. LLTALYFISWG [KCNH2_Y780_R784W]

RESULT:
0.779
0.516
1.12
1.95

Report phosphorylation enrichment for each item below.
1. LTTEAYEWEPC [ELMOD3_Y61_R66C]
2. FCIDHYLGKEM [G6PD_Y202_R198C_YF]
3. MEYAKYGSLRG [RET_Y809_V804M]
4. SVTCTYSPAFN [TP53_Y126_L130F]
5. DFDNLYFWDQD [ERBB2_Y1221_A1216D_YF]
6. FIRRDYEACKA [BBS4_Y48_K46R_YF]
7. MNKNAYHNVTA [ST3GAL6_Y306]

RESULT:
1: 6.69; 2: 0.63; 3: 0.536; 4: 1.31; 5: 1.25; 6: 0.573; 7: 0.443

Report phosphorylation enrichment for each item below.
1. CFTRKYTLPPG [HSPB1_Y142]
2. SIKNKYVTALF [KCNH2_Y611_D609N_YF]
3. VEDQFYRVDCF [FHL1_Y208_C209R_YF]
4. YSKTQYNQVPS [CXADR_Y318]
5. ELQGTYTSLQQ [KIF3C_Y574_R571Q]
6. QITQVCGFYDE [PPP2CA_Y127_Y127C]
7. EVASVYQSYQP [MAVS_Y92]

RESULT:
0.787
0.566
1.24
0.502
0.867
1.19
0.661

Report phosphorylation enrichment for each item below.
1. VSGIPYGQPKQ [NEU1_Y251]
2. VTVLDYEKIGK [SYT1_Y365_D366E]
3. LSFSEYASVQV [SIRPA_Y496_P491L]

RESULT:
0.522
0.77
1.1

----------
Biological target: c-Src SH2
Assay: SH2 binding enrichment of the phosphorylated peptide, bacterial display (enrichment ratio); higher = better substrate or ligand; peptides without Tyr show the background
Hi there, I'd appreciate the recorded SH2 binding enrichment for every entry that follows.
One number for each entry.

{"RESIDUE_SEQUENCE": "RPFFLYVAFHD [SGSH_Y174]", "SH2 binding enrichment": 0.581}
{"RESIDUE_SEQUENCE": "IHETTYKSIMK [ACTA1_Y281_N282K]", "SH2 binding enrichment": 0.55}
{"RESIDUE_SEQUENCE": "TLNHQYDFTFH [CSNK1A1_Y292_D297H_YF]", "SH2 binding enrichment": 4.74}
{"RESIDUE_SEQUENCE": "EVTRLYGSVCD [TC2N_Y154_K151T]", "SH2 binding enrichment": 0.503}
{"RESIDUE_SEQUENCE": "NYADPYRQLPY [CTNND2_Y503_Q507P]", "SH2 binding enrichment": 1.25}
{"RESIDUE_SEQUENCE": "DNLNNYVFQGQ [GRIN2A_Y978]", "SH2 binding enrichment": 0.438}
{"RESIDUE_SEQUENCE": "FIRRDYEACKA [BBS4_Y48_K46R_YF]", "SH2 binding enrichment": 0.682}
{"RESIDUE_SEQUENCE": "MDYRSYPHEYG [RBM10_Y44_R46H]", "SH2 binding enrichment": 0.494}
{"RESIDUE_SEQUENCE": "RLAKTYETTLK [ALB_Y377_E382K]", "SH2 binding enrichment": 0.557}
{"RESIDUE_SEQUENCE": "RGFRVYFTPDS [PTPRF_Y450_YF]", "SH2 binding enrichment": 1.2}

Report SH2 binding enrichment for each item below.
1. PLQKTYNFNML [SLC4A1_Y553_V557M_YF]
2. ADARMYGVLLW [PLP1_Y207_P211L]
3. GVLKEYVVKVL [CPS1_Y529_G530V]
4. FAKTQYPDIYA [CRX_Y63_V66I]
5. FGFPGYQCKHF [TIMP3_Y177_S179C_YF]

RESULT:
[0.717, 0.327, 0.479, 0.533, 0.83]

Report SH2 binding enrichment for each item below.
1. RHNEIYEIKVD [LGR5_Y387]
2. AHPIIYEIIEA [PYKtide_E_2014]
3. EFITRYIDSLK [PSMA7_Y110_A112D_YF]
4. LHAAAYRNALA [UQCRC2_Y182]

RESULT:
0.479
0.872
0.552
0.559

Report SH2 binding enrichment for each item below.
1. KDKLPYLFDDP [GPX2_Y125_P126L_YF]
2. ALAPKYHGGGG [HBB_Y146_H144P]
3. VIKDKYPKARF [APTX_Y209_YF]

RESULT:
[0.347, 0.341, 1.04]

All values here come from the supplement of paper PMC10065799.
